The reported measurements were obtained from ChEMBL document CHEMBL3286108.

target: 5-hydroxytryptamine receptor 7 (Homo sapiens, UniProt P34969); assay: biochemical
Sequence (P34969 whole entry): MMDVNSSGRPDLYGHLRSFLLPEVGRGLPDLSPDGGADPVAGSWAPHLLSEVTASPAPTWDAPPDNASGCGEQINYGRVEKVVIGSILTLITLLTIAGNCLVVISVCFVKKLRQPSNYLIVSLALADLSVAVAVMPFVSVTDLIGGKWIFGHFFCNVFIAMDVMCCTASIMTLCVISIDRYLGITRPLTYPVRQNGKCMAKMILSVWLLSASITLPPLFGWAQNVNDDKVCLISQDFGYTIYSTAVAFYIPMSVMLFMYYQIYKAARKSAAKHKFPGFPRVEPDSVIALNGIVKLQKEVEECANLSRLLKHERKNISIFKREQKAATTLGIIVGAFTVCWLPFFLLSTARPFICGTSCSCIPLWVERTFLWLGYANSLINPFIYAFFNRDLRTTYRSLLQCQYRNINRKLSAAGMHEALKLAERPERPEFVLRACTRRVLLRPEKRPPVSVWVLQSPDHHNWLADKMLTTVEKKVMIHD
recorded_endpoint: Ki

Prompt: Quickly give me recorded Ki for `O=S(=O)(NCCCCN1CCC(c2noc3cc(F)ccc23)CC1)c1cc2ccccc2s1`
Completion: 1.9 nM

###

molecular target: Muscarinic acetylcholine receptor M1 (Homo sapiens) (UniProt P11229); test: Displacement of [3H]pirenzepine from human recombinant M1 receptor expressed in CHO cells at 1 uM; assay type: cell-based
Sequence (P11229 whole entry): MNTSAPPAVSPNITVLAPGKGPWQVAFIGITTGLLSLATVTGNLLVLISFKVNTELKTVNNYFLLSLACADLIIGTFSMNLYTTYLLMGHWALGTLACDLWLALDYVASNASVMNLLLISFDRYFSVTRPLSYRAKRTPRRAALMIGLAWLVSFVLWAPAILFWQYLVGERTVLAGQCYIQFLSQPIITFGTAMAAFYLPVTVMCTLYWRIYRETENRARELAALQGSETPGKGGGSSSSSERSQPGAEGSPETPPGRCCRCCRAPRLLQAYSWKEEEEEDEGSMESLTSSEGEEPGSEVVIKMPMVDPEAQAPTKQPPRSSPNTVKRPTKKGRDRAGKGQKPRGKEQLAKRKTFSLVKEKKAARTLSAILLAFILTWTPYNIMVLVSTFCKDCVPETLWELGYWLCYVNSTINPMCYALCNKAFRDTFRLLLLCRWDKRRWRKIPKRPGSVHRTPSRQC
recorded_endpoint: inhibition (%)
Return type: number; implicit unit %.

Prompt: Quickly give me recorded inhibition for `O=S(=O)(NCCCCN1CCC(c2noc3cc(F)ccc23)CC1)c1cnc2ccccn12`
Completion: 37

Prompt: Quickly give me recorded inhibition for `O=S(=O)(NCCCCN1CCN(c2noc3ccccc23)CC1)c1cc2ccc(Cl)cc2s1`
Completion: -1

Prompt: Quickly give me recorded inhibition for `Cc1cccc(S(=O)(=O)NCCCCN2CCC(c3noc4cc(F)ccc34)CC2)c1`
Completion: 11

Prompt: Quickly give me recorded inhibition for `Cc1c(S(=O)(=O)NCCCCN2CCC(c3noc4cc(F)ccc34)CC2)sc2ccc(Cl)cc12`
Completion: 19

Prompt: Quickly give me recorded inhibition for `O=S(=O)(NCCCN1CCN(c2noc3ccccc23)CC1)c1cccc2scnc12`
Completion: -2

Prompt: Quickly give me recorded inhibition for `O=S(=O)(NCCCN1CCC(c2noc3cc(F)ccc23)CC1)c1ccc(F)c(Cl)c1`
Completion: -8

Prompt: Quickly give me recorded inhibition for `O=S(=O)(NCCCCN1CCN(c2nsc3ccccc23)CC1)c1ccc2ccccc2c1`
Completion: -5

Prompt: Quickly give me recorded inhibition for `Cc1c(S(=O)(=O)NCCCCN2CCC(c3noc4cc(F)ccc34)CC2)sc2ccc(F)cc12`
Completion: 22

Prompt: Quickly give me recorded inhibition for `O=S(=O)(NCCCN1CCN(c2nsc3ccccc23)CC1)c1cccc2scnc12`
Completion: 0

###

molecular target: Muscarinic acetylcholine receptor M1 (Homo sapiens) (UniProt P11229); experiment: Displacement of [3H]pirenzepine from human recombinant M1 receptor expressed in CHO cells at 1 uM; assay type: cell-based
recorded_endpoint: inhibition (%)
Return type: number; implicit unit %.

Below, 6 molecules whose answers are already recorded.
chem_smiles | unit_string | inhibition
O=S(=O)(NCCCCN1CCN(c2nsc3ccccc23)CC1)c1ccc(F)c(Cl)c1 | % | -10
O=S(=O)(NCCCCN1CCN(c2nsc3ccccc23)CC1)c1cnc2ccccn12 | % | 6
O=S(=O)(NCCCN1CCC(c2noc3cc(F)ccc23)CC1)c1cccc2ccccc12 | % | -9
O=S(=O)(NCCCCN1CCN(c2noc3ccccc23)CC1)c1cc2ccccc2s1 | % | 2
O=S(=O)(NCCCN1CCN(c2noc3ccccc23)CC1)c1ccc(Cl)c(Cl)c1 | % | 0
O=S(=O)(NCCCCN1CCN(c2nsc3ccccc23)CC1)c1cc2ccccc2s1 | % | 0

Prompt: Quickly give me recorded inhibition for `O=S(=O)(NCCCN1CCN(c2noc3ccccc23)CC1)c1ccc2ccccc2c1`
Completion: -5

Prompt: Quickly give me recorded inhibition for `O=S(=O)(NCCCCN1CCN(c2nsc3ccccc23)CC1)c1cccc2scnc12`
Completion: 0

Prompt: Quickly give me recorded inhibition for `Cc1cccc(S(=O)(=O)NCCCN2CCC(c3noc4cc(F)ccc34)CC2)c1`
Completion: 1

Prompt: Quickly give me recorded inhibition for `O=S(=O)(NCCCCN1CCC(c2noc3cc(F)ccc23)CC1)c1csc2ccccc12`
Completion: 5
